- TARGET_UNDER_TEST: human secretin receptor (hSCTR) (human, UniProt P47872 23-440)
- Sequence (P47872 23-440): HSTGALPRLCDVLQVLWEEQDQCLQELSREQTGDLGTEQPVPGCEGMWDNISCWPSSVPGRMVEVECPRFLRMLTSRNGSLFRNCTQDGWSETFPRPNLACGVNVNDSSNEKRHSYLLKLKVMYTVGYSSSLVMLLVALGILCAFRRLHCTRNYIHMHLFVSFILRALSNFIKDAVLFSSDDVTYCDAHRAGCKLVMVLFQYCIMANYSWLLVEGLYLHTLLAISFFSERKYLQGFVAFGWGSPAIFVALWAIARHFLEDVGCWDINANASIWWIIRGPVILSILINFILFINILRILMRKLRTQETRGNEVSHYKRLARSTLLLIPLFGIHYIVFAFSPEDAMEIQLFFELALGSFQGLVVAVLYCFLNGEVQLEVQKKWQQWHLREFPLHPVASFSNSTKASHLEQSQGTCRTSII
- TEST_SUMMARY: cell-based or functional assay
Numbered stars: 1 amine (or outer) side, 2 acyl side, 3 side chain; on linkers, the order of the positions; unused ones are H or OH. Square brackets hold non-standard residues; d marks the D form. Side chains are listed from the residue outwards. Ends that are not written are not given here. * marks the point of attachment. C20 diacid = O=C(O)CCCCCCCCCCCCCCCCCCC(=O)*; γGlu = O=C(O)[C@H](CCC(=O)[*:2])N[*:1]; AEEA = NCCOCCOCC(=O)O; Aib = CC(C)(N)C(=O)O
MEASUREMENT_KIND: pEC50 hSCTR

The value of pEC50 hSCTR measured for the binder H[Aib]EGTFTSDVSVLK([AEEA-AEEA-γGlu-C20 diacid])EEAAAQRFLEHLV-NH2 [SEQ ID NO: 28] turned out to be 5.9 -log M

The value of pEC50 hSCTR measured for the binder H[Aib]EGTFTSDVSTLK([AEEA-AEEA-γGlu-C20 diacid])ETAASQRFLEHLV-NH2 [SEQ ID NO: 20] turned out to be 6.4 -log M

The value of pEC50 hSCTR measured for the binder H[Aib]EGTFTSDVSVLKE[Aib]AAAQRFLEHLV-NH2 (not fully specified (residue 14)) [SEQ ID NO: 15] turned out to be 6.5 -log M
